System: LNCaP ARE-Luc
Assay: Luciferase assay in LNCaP cell lysates (LNCaP ARE-Luc)
Assay type: cell-based
Conditions: Homo sapiens, Firefly Luciferase Assay System, read-out: LNCaP ARE-Luc % inhibition IC50 Ranges
Procedure: Lysates were thawed on ice then collected into V-bottom 96-well tissue culture plates. Lysates were centrifuged at 4° C. for 5 minutes at 4000 rpm. To measure luminescence of LNCaP cell lysates the Firefly Luciferase Assay System (Promega) was employed, according to manufacturer's protocol. Relative luminescence units (RLU) in cell lysates were detected for 10 seconds using Promega GoMax-Multi Detection Luminometer (Promega). […]
pIC50: −log10 of the molar value.
Below is a list of entries, each paired with its recorded pIC50 value.

Compound	Tested On	Reported Metric	Measured
COc1cc(OCC(=O)CNS(C)(=O)=O)ccc1C(C)(C)c1ccc(OCCCCl)cc1	LNCaP ARE-Luc	pIC50	≤ 6.60
CC(C)(c1ccc(OCC(=O)CNS(C)(=O)=O)cc1)c1cc(Cl)c(NCCCCl)c(Cl)c1	LNCaP ARE-Luc	pIC50	6.60 to 7.00

Lab note: compound "CS(=O)(=O)NCC(=O)COc1ccc(-c2cc(Cl)c(OCCCCl)c(Cl)c2)cc1" tested on LNCaP ARE-Luc; recorded pIC50 was ≤ 6.60

Lab note: compound "CC(C)(c1ccc(OCC(=O)CNS(C)(=O)=O)cc1)c1cc(Cl)c(CCCCCl)c(Cl)c1" tested on LNCaP ARE-Luc; recorded pIC50 was ≤ 6.60

Lab note: compound "CN(CC(=O)CNS(C)(=O)=O)c1ccc(C(C)(C)c2cc(Cl)c(OCCCCl)c(Cl)c2)cc1" tested on LNCaP ARE-Luc; recorded pIC50 was ≤ 6.60

====

System: LNCaP ARE-Luc
Assay: Luciferase assay in LNCaP cell lysates (LNCaP ARE-Luc)
Assay type: cell-based
Settings: Homo sapiens, Firefly Luciferase Assay System, read-out: LNCaP ARE-Luc % inhibition IC50 Ranges
Protocol: Lysates were thawed on ice then collected into V-bottom 96-well tissue culture plates. Lysates were centrifuged at 4° C. for 5 minutes at 4000 rpm. To measure luminescence of LNCaP cell lysates the Firefly Luciferase Assay System (Promega) was employed, according to manufacturer's protocol. Relative luminescence units (RLU) in cell lysates were detected for 10 seconds using Promega GoMax-Multi Detection Luminometer (Promega). […]
pIC50: −log10 of the molar value.
Below is a list of entries, each paired with its recorded pIC50 value.

Lab note: molecule CC(C)(c1ccc(OCCCCl)cc1)c1ccc(OCC(=O)CNS(C)(=O)=O)cc1Cl [Compound A14] tested on LNCaP ARE-Luc; recorded pIC50 was ≤ 6.60

====

Below is a list of entries, each paired with its recorded microsomal CLint at 1 μM value.
assay: Microsomal stability assay, HLM; assay type: in vitro ADME; conditions: human, pH 7.4, 1 μM test compound, 0.5 mg/mL liver microsomes protein, 37° C., 0-60 min, read-out: HLM +/− NADPH: Clint (μL/min/mg protein)

Compound	microsomal CLint at 1 μM
CN(CC(=O)COc1ccc(C(C)(C)c2cc(Cl)c(OCCCCl)c(Cl)c2)cc1)S(C)(=O)=O [Compound A69]	≥ 48 µL/min/mg
CC(C)(c1ccc(NC(=O)C(=O)C(F)(F)F)cc1)c1cc(Cl)c(OCCCCl)c(Cl)c1 [Compound A93]	< 12 µL/min/mg
CC(C)(NS(C)(=O)=O)C(=O)COc1ccc(C(C)(C)c2cc(Cl)c(OCCCCl)c(Cl)c2)cc1 [Compound A64]	< 12 µL/min/mg

For record COc1cc(OCC(=O)CNS(C)(=O)=O)ccc1C(C)(C)c1ccc(OCCCCl)cc1 [Compound A12] the listed microsomal CLint at 1 μM is ≥ 48 µL/min/mg

For record CC(C)(c1ccc(OCC(=O)CNS(C)(=O)=O)cc1)c1cc(Cl)c(OCCCl)c(Cl)c1 [Compound A33] the listed microsomal CLint at 1 μM is ≥ 48 µL/min/mg

For record CC(C)(c1ccc(OCC(=O)CNS(C)(=O)=O)cc1)c1cc(Cl)c(OCc2ccccc2Cl)c(Cl)c1 [Compound A79] the listed microsomal CLint at 1 μM is ≥ 48 µL/min/mg
